- targetEntity: Bt-SARS-CoV-2 Spike Protein (RBD)(R319-F541).mFc (SARS-CoV-2)
- conditionNotes: remark: other sources report otherwise
propertyMeasured: Binding signal (MFI)
Give bare numbers, in MFI.

mAb10998 (antibody, V domains shown) VH: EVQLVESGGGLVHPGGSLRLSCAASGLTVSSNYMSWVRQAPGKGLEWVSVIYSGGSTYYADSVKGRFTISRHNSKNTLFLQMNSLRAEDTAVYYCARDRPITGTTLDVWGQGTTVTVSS VL: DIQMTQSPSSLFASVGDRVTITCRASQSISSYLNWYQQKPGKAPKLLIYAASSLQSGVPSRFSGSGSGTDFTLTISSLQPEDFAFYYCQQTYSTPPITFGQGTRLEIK :: 2230
mAb11006 (antibody, V domains shown) VH: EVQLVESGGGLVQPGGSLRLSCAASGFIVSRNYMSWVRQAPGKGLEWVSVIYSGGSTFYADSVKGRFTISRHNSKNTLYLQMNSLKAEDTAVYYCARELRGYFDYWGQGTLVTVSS VL: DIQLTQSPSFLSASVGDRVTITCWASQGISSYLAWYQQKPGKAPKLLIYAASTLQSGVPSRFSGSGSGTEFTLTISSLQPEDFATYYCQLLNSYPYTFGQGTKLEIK :: 1400
mAb11004 (antibody, V domains shown) VH: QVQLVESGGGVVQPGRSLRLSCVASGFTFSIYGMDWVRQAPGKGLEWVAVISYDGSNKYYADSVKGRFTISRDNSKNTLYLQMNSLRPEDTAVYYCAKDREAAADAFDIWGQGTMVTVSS VL: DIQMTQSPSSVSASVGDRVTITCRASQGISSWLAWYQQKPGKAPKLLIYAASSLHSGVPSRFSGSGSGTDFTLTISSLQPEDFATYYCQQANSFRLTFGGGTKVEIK :: 4300

Turning now to a further record.
Binding signal (MFI) in this record for mAb11008 (antibody, V domains shown) VH: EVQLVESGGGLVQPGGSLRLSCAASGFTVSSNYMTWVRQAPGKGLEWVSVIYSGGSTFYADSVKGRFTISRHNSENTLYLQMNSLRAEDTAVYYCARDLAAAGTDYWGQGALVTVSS VL: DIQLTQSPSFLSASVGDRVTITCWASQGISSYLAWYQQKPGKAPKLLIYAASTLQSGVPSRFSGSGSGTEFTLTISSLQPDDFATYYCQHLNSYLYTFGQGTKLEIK : 3050
